Kindly supply the reported EC50 values for the records listed here.
Tested on: monocistronic NK5.1 HCV replicon in Huh7 cells
Test: HCV replicon assay, monocistronic replicon cell line
Type: cell-based, hepatitis C virus
Details: Hepatitis C virus, Huh-7, 72 h; table T3 (compounds 471-640); monocistronic replicon in Huh7 cells, 3 days incubation, HCV RNA/GAPDH RNA by TaqMan RT-PCR; read-out: Mono EC50 Median

// "FC(F)(F)c1cccnc1-c1n[nH]c(-c2cccc(Br)c2)n1" : EC50 value = > 19 µM

// "Cn1nc(-c2ccccn2)nc1-c1cc(Br)cc(Br)c1O" : EC50 value = 4.8 µM

// "Cc1cccnc1-c1nc(-c2c(O)ccc3ccccc23)n(C)n1" : EC50 value = > 19 µM

// "O=[N+]([O-])c1ccc(O)c(-c2nc(-c3ncccn3)n[nH]2)c1" : EC50 value = > 32 µM

// "Clc1ccccc1-c1nc(-c2ccccn2)n[nH]1" : EC50 value = > 32 µM

// "CCN(CC)c1ccc(-c2nc(-c3ncccc3C(F)(F)F)n[nH]2)c(O)c1" : EC50 value = > 19 µM

// "Cc1ccc(O)c(-c2nc(-c3ccc(C(F)(F)F)cn3)n[nH]2)c1" : EC50 value = > 19 µM

// "COc1ccc(Br)cc1-c1nc(-c2ncccc2C(F)(F)F)n[nH]1" : EC50 value = > 19 µM

// "Oc1ccc(O)c(-c2nc(-c3ncccc3C(F)(F)F)n[nH]2)c1" : EC50 value = > 19 µM

----------
Kindly supply the reported EC50 values for the records listed here.
Tested on: monocistronic NK5.1 HCV replicon in Huh7 cells
Experiment: HCV replicon assay, monocistronic replicon cell line
Type: cell-based, hepatitis C virus
Settings: Hepatitis C virus, Huh-7, 72 h; table T3 (compounds 471-640); monocistronic replicon in Huh7 cells, 3 days incubation, HCV RNA/GAPDH RNA by TaqMan RT-PCR; read-out: Mono EC50 Median
Entry rule: numbers only, all in µM.

// "Oc1cc(OCc2ccccc2)ccc1-c1nc(-c2ncccc2Br)n[nH]1" : EC50 value = 7

// "Cc1cccnc1-c1n[nH]c(-c2cc(Cl)cc(Cl)c2O)n1" : EC50 value = 1.4

----------
System: monocistronic NK5.1 HCV replicon in Huh7 cells
Test: HCV replicon assay, monocistronic replicon cell line
Assay type: cell-based, hepatitis C virus
Settings: Hepatitis C virus, Huh-7, 72 h; table T3 (compounds 471-640); monocistronic replicon in Huh7 cells, 3 days incubation, HCV RNA/GAPDH RNA by TaqMan RT-PCR; read-out: Mono EC50 Median
RESULT_TYPE: EC50

// CCN(CC)c1ccc(-c2nc(-c3ccc(C(F)(F)F)cn3)n[nH]2)c(O)c1 [Compound 521] : EC50 value = > 19 µM

// CCOc1cccc(-c2nc(-c3ncccc3Br)n[nH]2)c1O [Compound 489] : EC50 value = 22 µM

// Cn1nc(-c2ccccn2)nc1-c1cc(Cl)cc(Cl)c1O [Compound 625] : EC50 value = 3.2 µM

// Cc1cccnc1-n1cnc(-c2cc(Br)ccc2O)n1 [Compound 635] : EC50 value = 6.2 µM

// Oc1ccc(Cl)cc1-c1ncn(-c2ccccn2)n1 [Compound 630] : EC50 value = 11 µM
